The measurements presented in this section are drawn from ChEMBL document CHEMBL4699435.

Test system: THP-1
Test: Inhibition of LPS-induced TNFalpha production in human THP-1 cells incubated for 2 hrs followed by LPS stimulation and measured after 12 hrs by ELISA
Assay type: functional, cell-based
Threshold-based label: IC50 under 1 µM gives true, IC50 not under 1 µM gives false.

Worked examples follow.
CCCCCCCC(=O)NCc1ccccc1 ... false
CCCCC/C=C\C/C=C\CCCCCCCC(=O)NC(C)c1ccccc1 (stereo unspecified) [MALINAMIDE] ... false
CCCCCCCCCCCCCCCCCC(=O)NCc1ccccc1 ... false
CCCCCCCCCCCCCCCC(=O)NCc1ccccc1 ... false
CCCCC/C=C\C/C=C\CCCCCCCC(=O)NCCc1ccccc1 ... false

Consider the record given below.
Query: Please state whether IC50 is below 1 µM for CCCCC/C=C\C/C=C\CCCCCCCC(=O)NC(C)c1ccc(C)cc1 (stereo unspecified)
Response: true

###

# Lookup of reported pIC50 keyed by entry
Tested on: THP-1
Assay: Inhibition of LPS-induced TNFalpha production in human THP-1 cells incubated for 2 hrs followed by LPS stimulation and measured after 12 hrs by ELISA
Type: functional, cell-based
Please report pIC50 as the negative decimal logarithm of the molar concentration, giving only the number.

# count of solved cases: 8
CCCCCCCC/C=C\CCCCCCCC(=O)NCCc1ccc(O)c(O)c1 ... 5.45
CCCCC/C=C\C/C=C\CCCCCCCC(=O)NC(C)c1cccc(C)c1 (stereo not given) ... 6.48
CCCCC/C=C\C/C=C\CCCCCCCC(=O)NC(C)c1ccc(CC)cc1 (stereo not given) ... 5.92
CCCCC/C=C\C/C=C\CCCCCCCC(=O)NC(CC)c1ccccc1 (stereo not given) ... 4.71
CCCCC/C=C\C/C=C\CCCCCCCC(=O)NCc1ccccc1 ... 4.85
CCCCC/C=C\C/C=C\CCCCCCCC(=O)NC(C)(C)c1ccccc1 ... 4.88
CCCCC/C=C\C/C=C\CCCCCCCC(=O)NC(C)C1CCCCC1 (stereo not given) ... 6.15
CCCCCCCC/C=C\CCCCCCCC(=O)NCc1ccccc1 ... 4.82

Query: So what does the record say about pIC50 for CCCCC/C=C\C/C=C\CCCCCCCC(=O)OCc1ccccc1 ?
Response: 5.19

Query: So what does the record say about pIC50 for CCCCC/C=C\C/C=C\CCCCCCCC(=O)NC(C)C12CC3CC(CC(C3)C1)C2 (stereo not given) ?
Response: 6.11
